- protocol.details: Aqueous solubility of polymorphic forms of Compound 1
- Assay type: physicochemical
- test.settings: aqueous medium, pH 4, aqueous buffer, pH 4
measured.quantity: solubility

• CNC(=O)c1ccccc1Sc1ccc2c(/C=C/c3ccccn3)n[nH]c2c1 [Form IV] = ~6 µg/mL

====

- protocol.details: Aqueous solubility of polymorphic forms of Compound 1
- Type: physicochemical
- test.settings: aqueous medium, pH 2, simulated gastric fluid, pH 2
measured.quantity: solubility

- CNC(=O)c1ccccc1Sc1ccc2c(/C=C/c3ccccn3)n[nH]c2c1 [Form I]: 179 µg/mL
